Assay: The drug is tested on Z-026 corresponding to metagenome with ENA study accession number: PRJEB37062 and ENA sample accession number: ERS12561825 for biotransformation under anaerobic condition. The drug concentrations were measured over 9 timepoints collected between 0 and 24 hours of incubation by liquid-chromatography-coupled mass spectrometry (LC–MS); also: call rule not given here
Conditions: 2 µM
metric: Bacterial Biotransformation

>>> result("CCCc1nc(C(C)(C)O)c(C(=O)OCc2oc(=O)oc2C)n1Cc1ccc(-c2ccccc2-c2nnn[nH]2)cc1 [OLMESARTAN MEDOXOMIL]")
"Compound NOT metabolized"
>>> result("CCCCc1nc(Cl)c(CO)n1Cc1ccc(-c2ccccc2-c2nn[nH]n2)cc1 [LOSARTAN]")
"Compound NOT metabolized"
>>> result("CC[C@H](C)C(=O)O[C@H]1C[C@@H](C)C=C2C=C[C@H](C)[C@H](CC[C@@H]3C[C@@H](O)CC(=O)O3)[C@H]21 [LOVASTATIN]")
"Compound metabolized"
>>> result("O=C(CCCN1CCC(O)(c2ccc(Cl)cc2)CC1)c1ccc(F)cc1 [HALOPERIDOL]")
"Compound NOT metabolized"
>>> result("Cc1cn([C@H]2C[C@H](N=[N+]=[N-])[C@@H](CO)O2)c(=O)[nH]c1=O [ZIDOVUDINE]")
"Compound metabolized"
>>> result("CN1CCc2cccc3c2[C@H]1Cc1ccc(O)c(O)c1-3 [APOMORPHINE]")
"Compound NOT metabolized"
>>> result("CC(CN1c2ccccc2Sc2ccccc21)N(C)C (configuration not stated) [PROMETHAZINE]")
"Compound NOT metabolized"
>>> result("O=P(O)(O)O.c1ccc(CN(CC2=NCCN2)c2ccccc2)cc1 [ANTAZOLINE PHOSPHATE]")
"Compound NOT metabolized"
>>> result("OC(Cn1cncn1)(Cn1cncn1)c1ccc(F)cc1F [FLUCONAZOLE]")
"Compound NOT metabolized"
>>> result("CCCc1nc2c(C)cc(-c3nc4ccccc4n3C)cc2n1Cc1ccc(-c2ccccc2C(=O)O)cc1")
"Compound metabolized"
>>> result("COc1ccc2[nH]c([S+]([O-])Cc3ncc(C)c(OC)c3C)nc2n1 (configuration not stated) [TENATOPRAZOLE]")
"Compound metabolized"
>>> result("CCCC(=O)Nc1ccc(OCC(O)CNC(C)C)c(C(C)=O)c1 (configuration not stated) [ACEBUTOLOL]")
"Compound NOT metabolized"
>>> result("CCCCCCOC(=O)/N=C(/N)c1ccc(NCc2nc3cc(C(=O)N(CCC(=O)OCC)c4ccccn4)ccc3n2C)cc1.CS(=O)(=O)O [DABIGATRAN ETEXILATE MESYLATE]")
"Compound NOT metabolized"
>>> result("Nc1nc2ccc(OC(F)(F)F)cc2s1 [RILUZOLE]")
"Compound metabolized"
>>> result("O=C(O)COCCN1CCN(C(c2ccccc2)c2ccc(Cl)cc2)CC1 (configuration not stated) [CETIRIZINE]")
"Compound NOT metabolized"
>>> result("C[C@@H]1CC[C@H]2[C@@H](C)C(=O)O[C@@H]3O[C@@]4(C)CC[C@@H]1[C@]32OO4 [ARTEMISININ]")
"Compound metabolized"
>>> result("NC(=O)N1c2ccccc2CC(=O)c2ccccc21 [OXCARBAZEPINE]")
"Compound NOT metabolized"
